system: CEM cells HIV-1 protection, formazan growth assay; test: NCI AIDS Antiviral Assay
pEC50: −log10 of the molar value.
Kindly state pEC50 for each of the entries shown.

IN: Please give the measured pEC50 for this compound: O=[N+]([O-])c1ccc(C2=Cc3ccc4ccccc4[n+]3NC2)cc1
OUT: < 4.30

IN: Please give the measured pEC50 for this compound: CO/C=C/CCCN(CC#N)Cc1ccccc1
OUT: < 4.56

IN: Please give the measured pEC50 for this compound: Nc1cc(Cl)cc(Cl)c1O
OUT: < 3.79

IN: Please give the measured pEC50 for this compound: Cn1c(N)c(N=O)c(=O)n(C)c1=S
OUT: < 3.70

IN: Please give the measured pEC50 for this compound: COC1=CC(=O)C2C=C3C(CO)=CCC(O)C3(C)CC2C1=O (centres undefined)
OUT: < 3.70

IN: Please give the measured pEC50 for this compound: O=c1c2cc([N+](=O)[O-])ccc2n2n1Cc1ccccc1CC2
OUT: < 3.70

IN: Please give the measured pEC50 for this compound: CC(C)=NOC(=O)CNC(=O)C(Cc1ccccc1)NC(=O)C(C)NC(=O)OC(C)(C)C (centres undefined)
OUT: < 3.70

IN: Please give the measured pEC50 for this compound: Cc1cc(/C=C2\C=Cc3ccccc32)ccc1N(C)C
OUT: < 4.42

IN: Please give the measured pEC50 for this compound: CCOC(=O)C(=CN1C/C(=C/C(C)=C/c2ccccc2)SC1=S)C(=O)OCC
OUT: < 4.00

IN: Please give the measured pEC50 for this compound: COCCCN1C(=O)C2c3[nH]c4ccccc4c3C3CCC(C(C)(C)C)CC3C2C1=O (centres undefined)
OUT: < 3.70

IN: Please give the measured pEC50 for this compound: COc1cc(C(=O)C/C(CCC(=O)Nc2ccccc2[N+](=O)[O-])=N\NC(=O)CC#N)ccc1O
OUT: < 3.27

IN: Please give the measured pEC50 for this compound: COc1c(C)cc(C(=O)c2cc(C)c(OC)c(Br)c2)cc1Br
OUT: < 4.00

IN: Please give the measured pEC50 for this compound: CN1C(=O)N(C)C(O)C1O (centres undefined)
OUT: < 3.70

IN: Please give the measured pEC50 for this compound: Cc1ccc2[nH]c(N(C)C)nc2c2nc(Cl)nc1-2
OUT: < 3.70

IN: Please give the measured pEC50 for this compound: O=[N+]([O-])c1ccccc1NC1CCN(CCCC2(c3ccc(F)cc3)OCCO2)CC1
OUT: < 3.70

IN: Please give the measured pEC50 for this compound: Oc1c2cc(Cl)cc1COCc1cc(Cl)cc(c1O)COCc1cc(Cl)cc(c1O)COC2
OUT: < 3.70

IN: Please give the measured pEC50 for this compound: OCC1(CO)COC2(CCCCC2)N1
OUT: < 2.91

IN: Please give the measured pEC50 for this compound: N#CNc1nc(C(=O)Nc2ccc(Cl)cc2)cc(-c2ccccc2)n1
OUT: < 3.45

IN: Please give the measured pEC50 for this compound: Brc1ccc(/C=C2\C=Cc3ccccc32)cc1
OUT: < 4.59

IN: Please give the measured pEC50 for this compound: O=C(C(Cl)=C(N1CCOCC1)N1CCOCC1)C(Cl)Cl
OUT: < 3.70

IN: Please give the measured pEC50 for this compound: COc1cc(/C=C(\C)[N+](=O)[O-])cc(OC)c1
OUT: < 3.70

IN: Please give the measured pEC50 for this compound: OC(C/C=N/N=C/CC(O)(C(F)(F)Cl)C(F)(F)Cl)(C(F)(F)Cl)C(F)(F)Cl
OUT: < 3.70

IN: Please give the measured pEC50 for this compound: O=C1OCCN1N1CCOC1=O
OUT: < 3.70

IN: Please give the measured pEC50 for this compound: COc1ccc(N=Nc2ccc3oc(=O)c(C(=O)Nc4ccc(OC)cc4)cc3c2)cc1
OUT: < 3.70

* * *

tested on: CEM cells HIV-1 protection, formazan growth assay; assay: NCI AIDS Antiviral Assay
PROPERTY_MEASURED: EC50

IN: Please give the measured EC50 for this molecule: N#CNC(=NCc1ccccc1)NCc1ccccc1
OUT: 200 µM

IN: Please give the measured EC50 for this molecule: O=C(NCc1ccccc1)c1cc2cc(O)c(O)cc2cn1
OUT: > 200 µM

IN: Please give the measured EC50 for this molecule: COC(=O)c1cc(=O)n(C)c2ccc(OC)cc12
OUT: > 200 µM

IN: Please give the measured EC50 for this molecule: CCOC(=O)/C(C#N)=C(O)/C(=C\c1ccc(Br)cc1)NC(=O)c1ccccc1
OUT: > 562 µM

IN: Please give the measured EC50 for this molecule: C=C1C2CC[C@@H]3C(C2)(C(=O)C(O)[C@@H]2C(C)(C)[C@@H]4CC(=O)C32CO4)C1OC(C)=O (stereo partly specified)
OUT: > 646 µM

IN: Please give the measured EC50 for this molecule: O=C(c1ccc(Cl)cc1)c1cnc(Nc2ccccc2Cl)s1
OUT: > 10.7 µM

IN: Please give the measured EC50 for this molecule: CCOc1ccc2nc(NC(=O)C(=O)C(C(=O)c3ccccc3-c3ccccc3)C3OC(=O)c4ccccc43)sc2c1 (stereo unspecified)
OUT: > 309 µM

IN: Please give the measured EC50 for this molecule: CC(C)(C)[Si](C)(C)OC[C@H]1O[C@@H](n2ccc(=O)[nH]c2=O)[C@H](O[Si](C)(C)C(C)(C)C)[C@@]12N[C@H](C(=O)O)CS2
OUT: > 200 µM

IN: Please give the measured EC50 for this molecule: Cc1cccc(C)c1Nc1nc(C)c(C(=O)CC(=O)C(=O)Nc2c(C(C)C)cccc2C(C)C)s1
OUT: > 200 µM

IN: Please give the measured EC50 for this molecule: COc1ccc2nc(C(=O)c3ccccc3)c(C)cc2c1
OUT: > 25.7 µM

IN: Please give the measured EC50 for this molecule: Clc1ccc(-c2nnc(C34CC5CC(CC(C5)C3)C4)o2)cc1
OUT: > 200 µM

* * *

Tested on: CEM cells HIV-1 protection, formazan growth assay
Test: NCI AIDS Antiviral Assay
Settings: measured here: growth of uninfected CEM cells
Description: The ability of compounds to protect human CEM cells from HIV-1 infection is measured as a screen for new compounds capable of inhibiting the HIV virus. Five concentrations of drug were tested on uninfected and infected cells and cell growth was measured using a soluble formazan assay. […] Compounds that provided at least 50% protection were retested. Compounds that provided at least 50% protection on retest were listed as moderately active. […]
PROPERTY_MEASURED: pIC50
// pIC50 is dimensionless: -log10 of concentration (M)

IN: Please give the measured pIC50 for this molecule: C=CC(=O)Nc1ccccc1CC(c1c[nH]c2ccccc12)c1c[nH]c2ccccc12
OUT: 4.59

IN: Please give the measured pIC50 for this molecule: Cc1cccc(-c2nc3ccc([N+](=O)[O-])cc3c(=O)o2)c1
OUT: 4.51

IN: Please give the measured pIC50 for this molecule: N#Cc1c(-c2ccc([N+](=O)[O-])cc2)c(C#N)c(=O)n(NS(=O)(=O)c2ccccc2)c1S
OUT: 4.78

IN: Please give the measured pIC50 for this molecule: CC(C)COC(=O)N1N=NC2C3CC(=O)C(O3)C21 (configuration not stated)
OUT: 3.91

IN: Please give the measured pIC50 for this molecule: CCN(C(=S)N[C@@H](Cc1ccccc1)C(=O)N[C@@H](CC(C)C)C(=O)OC)c1ccccc1
OUT: 4.59

IN: Please give the measured pIC50 for this molecule: O=C1N=NC(=O)N1c1cc(C(F)(F)F)cc(C(F)(F)F)c1
OUT: 5.54

IN: Please give the measured pIC50 for this molecule: COc1ccc2[nH]c3c(c2c1)CCc1c(OC)cccc1-3
OUT: 3.75

IN: Please give the measured pIC50 for this molecule: COc1ccccc1NC(=O)O/N=C(/Cl)C(C)C
OUT: 5.13

IN: Please give the measured pIC50 for this molecule: COCOc1ccc(C(=O)Oc2cccc3c2OC(C)(C)O3)c(OCOC)c1
OUT: 4.45

IN: Please give the measured pIC50 for this molecule: CC[C@@H](C)[C@H]([C@H](CC(=O)N1CCC[C@@H]1[C@@H](OC)[C@H](C)C(=O)N[C@H](Cc1ccccc1)c1nccs1)OC)N(C)C(=O)[C@H](NC(=O)[C@@H](C(C)C)N(C)C)C(C)C
OUT: 7.00

IN: Please give the measured pIC50 for this molecule: COc1cc(/C=C2\C(=O)N(c3cccc(NC(C)=O)c3)C(c3ccccc3)S2(=O)=O)cc(OC)c1OC (configuration not stated)
OUT: 4.06

IN: Please give the measured pIC50 for this molecule: CCC1(CC)C(=O)N(C(=O)c2ccccc2)N(C(=O)c2ccc(Cl)cc2)C1=O
OUT: 4.30

IN: Please give the measured pIC50 for this molecule: N#C/C(=C\n1c(=S)[nH]c2ccc([N+](=O)[O-])cc21)c1cccc(Cl)c1
OUT: 3.92

IN: Please give the measured pIC50 for this molecule: CCS(=O)c1c2cc(OC)ccc2nc2ccc(OC)cc12 (configuration not stated)
OUT: 5.86

IN: Please give the measured pIC50 for this molecule: COc1cc(SSc2ccc(N)c(OC)c2)ccc1N
OUT: 4.58

IN: Please give the measured pIC50 for this molecule: OC[C@@H]1C[C@H](F)[C@H](n2cnc3c(Cl)ncnc32)O1
OUT: 4.58

IN: Please give the measured pIC50 for this molecule: COC1(C2c3ccccc3CCN2C(=O)OC(C)(C)C)C(=O)C(c2ccccc2)=C1N(C)C (configuration not stated)
OUT: 4.44

IN: Please give the measured pIC50 for this molecule: Cc1ccc(S(=O)(=O)N/N=C\C2c3ccccc3-c3ccccc32)cc1
OUT: 5.66

IN: Please give the measured pIC50 for this molecule: COc1ccc2c(c1)C(N)=C(c1ccccc1)C2=O
OUT: 4.12

IN: Please give the measured pIC50 for this molecule: NC(=O)/C(=N\NC(=O)c1cc2ccccc2cc1O)C1C(=O)N(c2ccccc2)N=C1N (configuration not stated)
OUT: 4.86

IN: Please give the measured pIC50 for this molecule: COc1ccc(C2(Br)C(=O)NN=C2C)cc1 (configuration not stated)
OUT: 4.97
